B1: glmS ribozyme (parent)
chain: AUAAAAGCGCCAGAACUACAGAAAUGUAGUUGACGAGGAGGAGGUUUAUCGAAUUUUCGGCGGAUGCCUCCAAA

# Variants of: B1
# Method Notes: self-cleavage kobs at 40 uM GlcN6P; higher = faster cleavage; RNA array
# Particulars: with glucosamine-6-phosphate
This sample holds only a part of the variants without activity.
Outcome Measure: self-cleavage kobs at 40 uM GlcN6P

AUAAAAGCACCAGAAUUACAGAAAUGUAGUUGACGAGGAGGAGGUUUAUCGAAUUUUCGGCGGAUGCCUCCAAA [G9A C16U] = < 1e-05 s⁻¹
AUAAAAGCGCCAGAACUACAGAAAUGUAGUUGACGAGGAGGAGGUUUAUCGAAUUUUCGGCGGCAGCCUCCAAA [A64C U65A] = < 1e-05 s⁻¹
AUAAAAGCGCCAGAACUACAGAAAUGUAGUUGACGAGGAGGAGGUUUAUCGAAUGUUCGGCGGAUGCCUCUAAA [U55G C71U] = 0.00104 s⁻¹
AUAAAAGCGUCAGAACUACAGAAAUGUAGUUGACGAGGAGGAGGUUUACCGAAUUUUCGGCGGAUGCCUCCAAA [C10U U49C] = < 1e-05 s⁻¹

// each variant listed below needs its self-cleavage kobs at 40 uM GlcN6P
1. AUAAAAGCGCCAGAACUACAGAAAUGUAGUUCACGAGGAGGAGGUUUAUCGAUUUUUCGGCGGAUGCCUCCAAA [G32C A53U]
2. AUAAAAGCGCCAGAACUACAGAAAUGUAGUUGACGAGGAGGCGGUAUAUCGAAUUUUCGGCGGAUGCCUCCAAA [A42C U46A]
3. AUAAAGGCGCCAGAACUACAGAAAUGUAGUUGACAAGGCGGAGGUUUAUCGAAUUUUCGGCCGAGGACUCCAAA [A6G G35A A39C G62C U65G C67A]

## Output
< 1e-05 s⁻¹
< 1e-05 s⁻¹
< 1e-05 s⁻¹
